Every entry's value here was drawn from patent US20180244787A1.

The following binders are listed with their measured Kd values.
# targetDesc: T1, recombinant human CXCR3 (human, UniProt P49682 1-368, limits assumed)
# T1 construct: also called C-X-C motif chemokine receptor 3
# T1 sequence (looked up): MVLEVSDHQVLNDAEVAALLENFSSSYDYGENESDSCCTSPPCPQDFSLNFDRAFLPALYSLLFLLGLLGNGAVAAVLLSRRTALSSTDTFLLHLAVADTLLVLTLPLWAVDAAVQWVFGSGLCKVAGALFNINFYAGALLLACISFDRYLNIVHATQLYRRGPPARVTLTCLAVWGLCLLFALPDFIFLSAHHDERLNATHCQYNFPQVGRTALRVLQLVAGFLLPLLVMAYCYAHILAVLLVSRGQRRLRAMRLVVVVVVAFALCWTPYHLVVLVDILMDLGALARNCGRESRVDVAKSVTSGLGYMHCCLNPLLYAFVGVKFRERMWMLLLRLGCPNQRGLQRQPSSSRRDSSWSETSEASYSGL
# test: binding kinetics; method and antigen not given
Reply with just the number (in nM).

Recorded Kd, per entry:
binder	obsValue
humanized clone 53 HuAntibody 29 (antibody, V domains shown, humanized anti-human CXCR3 mAb) VH: EVQLLESGGGLVQPGGSLRLSCAASGFTFTSYAMSWVRQAPGKGLEWVATISHGGTYTYYPDSVKGRFTISRDNAKNTLYLQMNSLRAEDTAVYYCARHPIYSGNYQGYFDYWGQGTLVTVSS VL: DIQLTQSPSFLSASVGDRVTITCRASSGVNYLYWYQQKPGKAPKLWIYFTSTLAPGVPSRFSGSGSGNEYTLTISSLQPEDFATYYCQQFTSSPYTFGQGTKLEIK	0.303
humanized clone 53 HuAntibody 25 (antibody, V domains shown, humanized anti-human CXCR3 mAb) VH: EVQLLESGGGLVQPGGSLRLSCAASGFTFTSYAMSWVRQAPGKGLEWVATISHGGTYTYYPDSVKGRFTISRDNAKNTLYLQMNSLRAEDTAVYYCARHPIYSGNYQGYFDYWGQGTLVTVSS VL: DIQLTQSPSFLSASVGDRVTITCRASSGVNYLYWYQQKPGKAPKLWIYFTSTLAPGVPSRFSGSGSGNEYTLTISSLQPEDFATYYCQQFTSSPYTFGGGTKLEIK	0.623
humanized clone 53 HuAntibody 35 (antibody, V domains shown, humanized anti-human CXCR3 mAb) VH: EVQLLESGGGLVQPGGSLRLSCAASGFTFTSYAMSWVRQAPGKGLEWVATISHGGTYTYYPDSVKGRFTISRDNAKNTLYLQMNSLRAEDTAMYYCARHPIYSGNYQGYFDYWGQGTLVTVSS VL: DIQLTQSPSFLSASVGDRVTITCRASSGVNYLYWYQQKPGKAPKLWIYFTSTLASGVPSRFSGSGSGNEYTLTISSLQPEDFATYYCQQFTSSPYTFGQGTKLEIK	0.0456

Task item: State the recorded Kd for this entry: humanized clone 53 HuAntibody 30 (antibody, V domains shown, humanized anti-human CXCR3 mAb) VH: EVQLLESGGGLVQPGGSLRLSCAASGFTFTSYAMSWVRQAPGKGLEWVAVISHGGTYTYYADSVKGRFTISRDNAKNTLYLQMNSLRAEDTAVYYCARHPIYSGNYQGYFDYWGQGTLVTVSS VL: DIQLTQSPSFLSASVGDRVTITCRASSGVNYLYWYQQKPGKAPKLWIYFTSTLASGVPSRFSGSGSGNEYTLTISSLQPEDFATYYCQQFTSSPYTFGGGTKLEIK
Reply: 1.34

Task item: Also, humanized clone 53 HuAntibody 24 (antibody, V domains shown, humanized anti-human CXCR3 mAb) VH: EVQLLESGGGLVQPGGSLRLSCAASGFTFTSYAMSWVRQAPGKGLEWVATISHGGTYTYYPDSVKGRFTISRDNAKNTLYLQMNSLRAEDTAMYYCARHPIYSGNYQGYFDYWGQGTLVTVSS VL: DIQLTQSPSFLSASVGDRVTITCRASSGVNYLYWYQQKPGKAPKLWIYFTSTLAPGVPSRFSGSGSGNEYTLTISSLQPEDFATYYCQQFTSSPYTFGGGTKLEIK please.
Reply: 0.0614
